- TGT: T1, YU-2 gp140 (HIV-1 YU2, UniProt P35961 32-670)
- T1 construct: domain: gp140; also called YU2 gp140 trimer
- METHOD SUMMARY: SPR, gp140 on chip, IgG injected
Sorting guide: entries reporting kon beneath 30000 M⁻¹ s⁻¹ go in the 1 pile, the rest go in the 0 pile.

Just wondering, is kon of 1NC9 (antibody, V domains shown, also called LSSNEC9HC; LSSNEC9LC) VH: QVRLVQSGAQLKKPGASVTVSCEASGYNFVNYIINWVRQTPGRSFEWVGMIDPRRGRPWSAQKFQGRLTLTRDIDSEKLYMHLSGLRGDDTAVYYCARQDSDFHDGHGHTLRGMFDSWGQGSPVTVSS VL: QVLSVSGTPGQRVIISCSGTSSNVGGNLVSWYQHLPGAAPRLLIHRDDQRPSGVPDRFSGSKSGNSASLVISGLRSDDEADYFCAAYDSTFSLPVFGGGTRLTVLS below 30000 M⁻¹ s⁻¹? 0

What would you report for 8ANC134 (antibody, V domains shown, also called 8ANC134HC; 8ANC134KC) VH: QGQLVQSGGGVKKPGTSVTISCLASEYTFNEFVIHWIRQAPGQGPVWLGLIKRSGRLMTSYKFQDRLSLRRDRSTGTVFMELRGLRLDDTAVYYCARDGLGEVAPAYLYGIDAWGQGSTVIVTS VL: EIVLTQSPATLSLSPGERATLSCRASQGLNFVVWYQQKGGQAPRLLIHGPTDRAPGVPDRFSARGSGTEFSLVISSVEPDDFALYYCQEYSSTPYNFGPGTRVDRKR ? 1

Queued: 3BNC60 (antibody, V domains shown, also called 3BNC60HC; 3BNC60KC) VH: QVHLSQSGAAVTKPGASVRVSCEASGYKISDHFIHWWRQAPGQGLQWVGWINPKTGQPNNPRQFQGRVSLTRQASWDFDTYSFYMDLKAVRSDDTAIYFCARQRSDFWDFDVWGSGTQVTVSSASTKG VL: DIQMTQSPSSLSARVGDTVTITCQANGYLNWYQQRRGKAPKLLIYDGSKLERGVPARFSGRRWGQEYNLTINNLQPEDVATYFCQVYEFIVPGTRLDLKRTVAA 1

Subsequent entry: 8ANC195 (antibody, V domains shown, also called 8ANC195HC; 8ANC195KC) VH: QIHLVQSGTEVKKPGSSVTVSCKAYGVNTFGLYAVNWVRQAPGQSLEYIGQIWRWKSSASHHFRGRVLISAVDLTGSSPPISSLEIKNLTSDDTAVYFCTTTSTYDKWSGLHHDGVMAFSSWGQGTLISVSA VL: DIQMTQSPSTLAASIGGTVRVSCRASQSITGNWVAWYQQRPGKAPRLLIYRGAALLGGVPSRFSGSAAGTDFTLTIGNLQAEDFGTFYCQQYDTYPGTFGQGTKVEVKR 0

Values from patent US20210230254A1
